Entries annotated with measured % inhibition formation SNARE complex
biological target: SNARE complex (VAMP, syntaxin and SNAP-25 bound to GST) (UniProt P60880); experiment: competition ELISA: VAMP on plate, SNAP-25-GST + syntaxin, anti-GST detection; compound at 0.5 mM
Sequence (P60880 whole entry, one chain of several): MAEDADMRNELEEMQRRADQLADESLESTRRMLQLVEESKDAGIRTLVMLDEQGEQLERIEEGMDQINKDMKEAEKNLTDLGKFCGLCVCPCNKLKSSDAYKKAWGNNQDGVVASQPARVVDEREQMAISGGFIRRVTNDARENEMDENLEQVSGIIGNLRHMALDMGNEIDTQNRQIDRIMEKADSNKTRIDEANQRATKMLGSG
Non-standard residues stand in square brackets, D forms with d. *: point of attachment. Met(O2) = CS(=O)(=O)CC[C@H](N)C(=O)O; Palmitoyl = CCCCCCCCCCCCCCCC(=O)*; Met(O) = CS(=O)CC[C@H](N)C(=O)O
Numbers only; they are read as %.

Examples from the recorded data:
Ac-DHFLDW[Met(O)]-NH2 [Ac-SEQ ID NO:56-NH2] : 16
Ac-DHFLDW[Met(O2)]-NH2 [Ac-SEQ ID NO:61-NH2] : 8
Ac-DHFQQRM-NH2 [Ac-SEQ ID NO:24-NH2] : 41

Now, please, on to the next binder.
Recorded % inhibition formation SNARE complex (binder Palmitoyl-EHLKQWM-NH2 [Palm-SEQ ID NO:1-NH2] ): 21
